Ref: ChEMBL document CHEMBL1136837

tested on: Human alphaherpesvirus 2; assay: Antiviral activity against Herpes simplex virus 2; type: functional, organism-based; conditions: Human alphaherpesvirus 2
Each record here notes measured IC50.
ENDPOINT_NAME: IC50 (nM)

| INPUT_SMILES | UNITS | OBSERVED_VALUE |
| --- | --- | --- |
| Nc1nc(N)c(-c2ccccc2)c(OCCOCP(=O)(O)O)n1 | nM | 1.2 |
| C=CCc1c(N)nc(N)nc1OCCOCP(=O)(O)O | nM | 1.2 |
| Nc1nc(N)c(Cc2ccccc2)c(OCCOCP(=O)(O)O)n1 | nM | 0.66 |
| Nc1cc(=O)n(CCOCP(=O)(O)O)cn1 | nM | 1.61 |
| Nc1nc(N)n(CCOCP(=O)(O)O)c(=O)c1-c1ccccc1 | nM | 1.2 |
| N#CCc1c(N)nc(N)n(CCOCP(=O)(O)O)c1=O | nM | 1.2 |
| Nc1cc(O)nc(SCCOCP(=O)(O)O)n1 | nM | 1.42 |
| CC(C)OP(=O)(COCCOc1cc(N)ncn1)OC(C)C | nM | 1.2 |
| Nc1nc(OCCOCP(=O)(O)O)cc(=O)n1CCOCP(=O)(O)O | nM | 0.993 |
